# PROTOCOL_DESCRIPTION: Particle size of Luc DNA-encapsulated lipid nanoparticles
# Assay type: physicochemical
# CONDITION_SET: cationic lipid:DPPC:cholesterol:GM-020=60:10.6:28:1.4 molar ratio
RESULT_TYPE: Particle size (nm)

CCCCCC(CCCCC)COC(=O)CCC(=O)OCC(COC(=O)CCCN(C)C)(COC(=O)CCC(=O)OCC(CCCCC)CCCCC)COC(=O)CC(CCCCC)CCCCC [Example 95]: 82.6
CCCCCCCOC(=O)CCCCC(=O)OCC(COC(=O)CCCCC(=O)OCCCCCCC)(COC(=O)CCCN(C)C)COC(=O)CC(CCCCCC)CCCCCC [Example 85]: 148.3
CCCCCCCOC(=O)CCCCC(=O)OCC(COC(=O)CCCCC(=O)OCCCCCCC)(COC(=O)CCCN(CC)CC)COC(=O)CC(CCCCC)CCCCC [Example 14]: 145.0
CCCCCC(CCCCC)CC(=O)OCC(COC(=O)CCCCC(=O)OCC(CCCC)CCCC)(COC(=O)CCCCC(=O)OCC(CCCC)CCCC)COC(=O)CCCN(C)C [Example 117]: 161.0
CCCCCC(CCCCC)COC(=O)CCC(=O)OCC(COC(=O)CCCN(C)C)(COC(=O)CC(CCCCC)CCCCC)COC(=O)CC(CCCCC)CCCCC [Example 96]: 74.2
CCCCCCCCCCOC(=O)CCCCC(=O)OCC(COC(=O)CCCCC(=O)OCCCCCCCCCC)(COC(=O)CCCCC(=O)OCCCCCCCCCC)COC(=O)CCCN(C)C [Example 42]: 114.5
CCCCCCCCCCOC(=O)CC(=O)OCC(COC(=O)CCCN(C)C)(COC(=O)CC(=O)OCCCCCCCCCC)COC(=O)CC(CCCCC)CCCCC [Example 71]: 97.2
CCCCCC(CCCCC)OC(=O)CCC(=O)OCC(COC(=O)CCCN(C)C)(COC(=O)CCC(=O)OC(CCCCC)CCCCC)COC(=O)CCC(=O)OC(CCCCC)CCCCC [Example 39]: 135.2
CCCCCCOC(=O)CCCCCC(=O)OCC(COC(=O)CCCCCC(=O)OCCCCCC)(COC(=O)CCCN(CC)C(C)C)COC(=O)CC(CCCCC)CCCCC [Example 102]: 139.8
CCCCCCCOC(=O)CCCCC(=O)OCC(COC(=O)CCCCC(=O)OCCCCCCC)(COC(=O)CCCN(CC)C(C)C)COC(=O)CC(CCCCC)CCCCC [Example 91]: 111.9
CCCCCCCCOC(=O)CCCC(=O)OCC(COC(=O)CCCC(=O)OCCCCCCCC)(COC(=O)CCCN(C)C)COC(=O)CC(CCCCC)CCCCC [Example 98]: 140.5
CCCCCCCOC(=O)CCCCC(=O)OCC(COC(=O)CCCCC(=O)OCCCCCCC)(COC(=O)CCCN(C)C)COC(=O)CC(CCCCC)CCCCC [Example 13]: 136.5
